Sourced from PubChem BioAssay (NCI)

# System: MCF7 breast
# measurement notes: NCI-60 one-dose screen, 48 h (100 = growth as untreated, 0 = no growth, -100 = all killed)
# applied conditions: 10 µM unless noted
About 83,000 compounds went through this panel and 20% of them were active in at least one assay; those are over-represented in the sample as a whole.
Returns yes (1) if the recorded growth is greater than or equal to 20%, and no (0) otherwise.

### Prompt Decide: is the reported value of growth for `CC(C)c1ccc(Cc2cnc(NC(=O)c3cc(Br)cs3)s2)cc1` equal to or greater than 20%?
### Response no (0)

### Prompt Decide: is the reported value of growth for `Nc1cnc(C(=O)NNc2nc3cc(F)ccc3n3cccc23)cn1` equal to or greater than 20%?
### Response no (0)

### Prompt Decide: is the reported value of growth for `O=C(Nc1ccc(OS(=O)(=O)c2ccc(F)cc2)cc1)C1CCCCCC1` equal to or greater than 20%?
### Response yes (1)

### Prompt Decide: is the reported value of growth for `Cc1c(-c2ccc(O)cc2)n(Cc2ccc(OCCN3CCCCCC3)cc2)c2ccc(O)cc12` equal to or greater than 20%?
### Response no (0)

### Prompt Decide: is the reported value of growth for Nc1n[nH]c2ccc([C@H]3[C@@H]4C5CCC(C5)[C@@H]4c4c(ccc5[nH]ncc45)N3S(=O)(=O)C3CC3)cc12 (stereo not given in full) equal to or greater than 20%?
### Response no (0)
